# experimentSummary: NCI Yeast Anticancer Drug Screen. Data for the bub3 strain (AID 167)
# measurementSetup: S. cerevisiae bub3 mutant strain, at 50.0 µM, active compounds read high
This is part of a sample that, as a whole, favours compounds with a hit. Of some 79,000 tested, about 15% had one in any assay. Activity calls are given as the source filed them. Rule as the data show it: active = growth inhibition above about 70%; inactive = the rest.
measuredAttribute: growth inhibition

Query: Please look up its growth inhibition: "CCC[C@H]1C(=O)N=C(N)N1C(=O)OCc1ccccc1"
Response: -3.3% (inactive)

Query: Now try "CC(=O)n1oc2ccc(Br)cc2c1=O" .
Response: 9.25% (inactive)

Query: Same again, this time with "CC(=O)Oc1ccc(OC(C)=O)c(C(=O)O)c1"
Response: -2.3% (inactive)

Query: Next entry: CCSC(N)=Nc1ccccc1 (tested in a mixture with another compound)
Response: 12.1% (inactive)

Query: Request: CCOCCOCCOC(=O)C(C)O (configuration not stated)
Response: -18.6% (inactive)

Query: Another: OCC(O)COc1cccc2cccnc12 (configuration not stated)
Response: 11.2% (inactive)

Query: Repeat for the following molecule: "CCC[N+]1=C/c2ccccc2OC(=O)/C=C\1[O-]"
Response: 5.8% (inactive)

Query: Now consider "CCOC(=O)NCC(=O)NCC(=O)NCC(N)=O" and answer again.
Response: -25.1% (inactive)

Query: Would you kindly repeat that for "CCCCN(CCCC)/C(=C/C(=O)OC)C(=O)OC" ?
Response: 26.9% (inactive)

Query: Another molecule: "CN/N=C(/CC(=O)c1sc(NNC(C)=O)nc1C)C(=O)Nc1ccc(OC)cc1OC"
Response: 15% (inactive)

Query: Same read-out for "O=S(=O)(N/N=C(/CC/C(=N\NS(=O)(=O)c1ccccc1)c1ccccc1)c1ccccc1)c1ccccc1" ?
Response: -2% (inactive)

Query: Now consider COc1ccc2c(c1)OCCN(C)OC2c1ccccc1 (configuration not stated) .
Response: 11.1% (inactive)

----------
# experimentSummary: NCI Yeast Anticancer Drug Screen. Data for the bub3 strain (AID 167)
# measurementSetup: S. cerevisiae bub3 mutant strain, at 50.0 µM, active compounds read high
Compounds without any hit were thinned out: in the full panel of roughly 79,000, 15% have a hit.
I'd be grateful if you could share measured growth inhibition for these entries.
Provide only the numeric value, understood in %.

Query: What growth inhibition value was documented for this compound, COc1cc(/C=N/N2CN(C(C)C(=O)O)B(NCCC(C)C)N=C2N)cc(OC)c1 (configuration not stated) ?
Response: 23.6

Query: Try "Cn1c(=O)c2[nH]c(SCc3ccccn3)nc2n(C)c1=S" next.
Response: -26.6

Query: Similarly, "O=c1[nH]c(-c2ccncc2)nnc1-c1ccc(Cl)cc1" ?
Response: 2.15

Query: What about this compound? NC(=S)NCc1ccccc1C(O)c1ccccc1 (configuration not stated)
Response: 18.5

Query: Also, "CC(C)=NN/C=N/S(=O)(=O)c1ccc(C)cc1" please.
Response: 2.1

Query: Same thing, different compound: O=C1CSC(c2cccc(O)c2)N1c1nncs1 (configuration not stated)
Response: 14.2

Query: Repeat for the following compound: "Cc1cc(N(CCC#N)CCC#N)ccc1/C=C(\N=[N+]=[N-])C(=O)NC(=O)COc1ccccc1"
Response: -6.65

Query: Item: "O=C1CCC2=C(N1)C(=O)C=CC2=O"
Response: -8.35

Query: Next compound: "CCCN(CCN(CC)CC)C(=O)N(CC)CC"
Response: 6.35

Query: Try this compound next: "CCCCCOC(=O)Nc1ccc(OCC)cc1"
Response: -1.3

Query: And the next one, "O=[N+]([O-])c1cccc(Cc2nc3ccccc3nc2-c2ccccc2)c1" ?
Response: 48.6

Query: Try "O=C1c2ccccc2C(=O)N1Br" next.
Response: 3.6

Query: Queued: CC/C=C(\C)C(C#N)(CC)C(=O)OCC (configuration not stated)
Response: -20.4

Query: Also COc1cc2c(cc1OC)C1C(=O)c3c(O)cc4c(c3OC1CO2)C=CC(C)(C)O4 (configuration not stated) ?
Response: 33.9

Query: Further, for Cc1ccc(N=C(C(=O)c2ccccc2)C(Nc2ccc(C)cc2)C(=O)c2ccccc2)cc1 (configuration not stated) ?
Response: -3.7

Query: Let us now turn to O=C(Cn1cc(I)c(C(=O)NCC(O)CO)n1)NCC(O)CO (configuration not stated)
Response: -5.9

Query: Same lookup for Cc1c(C)c(O)c(SC(CC(=O)O)C(=O)O)c(C)c1O (configuration not stated) , please.
Response: 21.7

Query: Thanks! And "CN(C)CCCN1N=Nc2cccc3cccc1c23" ?
Response: 15.2

Query: Also, NC(N)=Nc1ccc(CC(N)C(=O)NCC(=O)C(CC(=O)O)c2ncc(NC(=O)C(F)(F)F)o2)cc1 (configuration not stated) please.
Response: -19.6

Query: Repeat for the following compound: "Nc1ccc(S(=O)(=O)NNc2nc(N3CCCCC3)nc(N3CCCCC3)n2)cc1"
Response: -11.7

Query: Then CCN(CC)CC1(C)NN=C2C(n3cccc3)=CC=CN21 (configuration not stated) ?
Response: -4.2

Query: And for "NC(N)=NOCC(=O)O" ?
Response: 3.95

Query: Now the compound COC1CC(OC2C(C)OC(OC3C(C)OC(OC4C(O)CC(O[C@H]5CC[C@@]6(C)C(=CC[C@]7(O)[C@@H]6C[C@@H](OC(=O)/C=C/c6ccccc6)[C@@]6(C)[C@]7(O)CC[C@@]6(O)C(C)=O)C5)OC4C)CC3OC)CC2OC)OC(C)C1O (some centres not stated)
Response: -6.75

Query: One more compound: "CCNc1ccc(C)cc1"
Response: -5.15

Query: Similarly, "O=C(Nc1ccc([N+](=O)[O-])cc1)Nc1nccnn1" ?
Response: 8.4

Query: One more compound: "CCn1c(S)c(N=NC(=S)c2ccc3ccccc3n2)c2ccccc21"
Response: 17.4

Query: Another: "CC(=O)Nc1ccc(/C=N/NC(N)=S)cc1"
Response: 3.05

Query: Do the same for COc1ccc(C2OCC(C)O2)cc1OC (configuration not stated) please
Response: -31.4

Query: Would you mind doing "Cn1c2cc3ccccc3cc2nc2cc3c(cc21)c(Cl)c(=O)c1ccccc13" as well?
Response: -4.45

Query: Can you check "CCOC(=O)c1ccc(NC(=O)Oc2ccc(C=O)cc2OC)cc1" next?
Response: 20.1

Query: Cool, now "Cc1c(C)c2cc3c(=O)c(CCl)coc3c(C)c2oc1=O"
Response: -7.15

Query: Also C=CCNC(=O)N(CCC)CCCC(NC(C)=O)C(=O)NCc1ccccc1 (configuration not stated) , if possible.
Response: -17.1

Query: Queued: "C(=C1c2c(ccc3ccccc23)Oc2ccc3ccccc3c21)c1ccccc1"
Response: 1.65

Query: Field entry: "Cc1cccc2c(N)c3cccc(C(=O)NCC[N+](C)(C)[O-])c3nc12"
Response: 18.4

Query: Would you kindly repeat that for "Cc1ccc2c(c1)CCC(=O)O2" ?
Response: 10.4

Query: What about "CCc1cccc(CC)c1NC(=O)/C=C/C(=O)O" ?
Response: -4.2

Query: Check "COc1ccc2ccc3[nH]c4c(C)cnc(NCCCN(C)C)c4c3c2c1" too.
Response: 45.9

Query: What about this compound? N#CC(NCCc1ccccc1)c1ccccc1 (configuration not stated)
Response: -56.7

Query: Same question, NCC(O)COCc1ccccc1 (configuration not stated) this time
Response: -1.6

Query: Do the same for CC1(C)C2CCC(CCOC(=O)COc3ccc(Cl)cc3)C1C2 (configuration not stated) please
Response: 3.15

Query: Another compound to look at: O=C(Nc1cc(Cl)ccc1Cl)C(=O)C(c1cnc2ccccc2n1)[N+](=O)[O-] (configuration not stated)
Response: 34.1

Query: # repeat for "COC(=O)N/N=C/c1ccc(C)cc1"
Response: -3.9

Query: Do the same for CCCCCCCCN(CCCCCCCC)CC(O)c1ccc2c(c1)Sc1ccccc1O2 (configuration not stated) please
Response: 97.1

Query: Entry CC1CCCC2(CN=C(Nc3ccccc3)O2)C1 (configuration not stated) please
Response: -10.1

Query: Likewise for "Clc1ccccc1-c1c2ccccc2cc2c1ccc1ccccc12" ?
Response: 5.45

Query: Now the same for Cc1cn(C2CC(O)C(CO)O2)c(=O)nc1N1CCCCCCC1 (configuration not stated)
Response: 4.85

Query: Param item: "CC(=O)Nc1ccc2cc(-c3ccc(Cl)cc3)c3nnnn3c2n1"
Response: 0.9

----------
# experimentSummary: NCI Yeast Anticancer Drug Screen. Data for the mec2-1 strain (AID 157)
# measurementSetup: S. cerevisiae mec2-1 strain, at 50.0 µM, active compounds read high
About 79,000 compounds went through this panel and 15% of them were active in at least one assay; those are over-represented in the sample as a whole.
Kindly supply the reported growth inhibition values for the records listed here.
// units = %; emit number, no label

Query: What does the data say about its growth inhibition? Entry: "CN(C)CCC(/C=C/c1ccccc1)=N\Nc1ccccc1"
Response: -14.9

Query: Entry to check: "[O-][n+]1cscc1-c1nc2ccccc2[nH]1"
Response: -13.2

Query: How about this compound: C/C=C(/C)C(=O)OC12CC(C)C3(O)C(C=C(CO)C[C@]4(O)C(=O)C(C)=CC34)C1C2(C)C (stereo partly specified)
Response: 1.3

Query: Next up: "O=C(O)C(=O)Cc1ccccc1"
Response: -14.2

Query: Next up: N#CCCC(CC#N)N1CCN(C(CC#N)CCC#N)CC1 (stereo unspecified)
Response: -48.9

Query: Likewise for "O=c1c2c([nH]c(=S)n1-c1ccccc1)NCCC2" ?
Response: -1.25

Query: Cool, now "O=[N+]([O-])c1ccc(Cl)c(C=NC23CC4CC(CC(C4)C2)C3)c1"
Response: -24.8

Query: // query: "COC(=O)c1cc(-c2ccccc2)c2c(=O)n(-c3ccccc3)[nH]c2n1"
Response: 7.35

Query: Cool, now COc1ccc(C(C)c2cc3c(cc2OCCO)OCO3)cc1 (stereo unspecified)
Response: 6.7

Query: For "CC(CNC(=O)c1ccccc1)(CNC(=O)c1ccccc1)[N+](=O)[O-]" then?
Response: 1.35

Query: Request: "COc1ccc(Cc2cc3c(cc2OCC(=O)Nc2ccccn2)OCO3)cc1"
Response: -1.95

Reference source for all entries: PubChem BioAssay (NCI)
